Tested on: GENE-TOX genotoxicity assays, various organisms and cells
assay remarks: GENE-TOX mutagenicity studies
conditions: Species/Cell Type: Drosophila melanogaster; Sex: Male; Assay Type: Heritable translocation test, chromosome aberrations; Assay Code: DHT+; Evaluation Type: Evaluation A (Pre-1980)
The source made the active and inactive calls. No rule for the calls is given here.
readout kind: mutagenic call

Examples with their reported mutagenic call follow.
Task: // mutagenic call lookup, key: O=C1CCO1
Result: active; positive

Task: Query (molecule): O=P(OCC(Br)CBr)(OCC(Br)CBr)OCC(Br)CBr (centres undefined) ; field requested: mutagenic call
Result: active; positive

Task: What does the record list as mutagenic call for CN(C)N=Nc1ccccc1 ?
Result: active; positive

Task: Consider the molecule C1OC1C1CO1 (centres undefined) and give its measured mutagenic call.
Result: active; positive

Task: Find the recorded mutagenic call belonging to O=C1C=C(N2CC2)C(=O)C(N2CC2)=C1N1CC1 and report it.
Result: active; positive

Task: Look up mutagenic call for this molecule: CCOC(N)=O
Result: active; positive

Next:
Task: Need mutagenic call, item CCOS(C)(=O)=O
Result: active; positive

Task: State the recorded mutagenic call for this entry: CN(C)N=O
Result: active; positive

Task: Name the recorded mutagenic call for C=O .
Result: active; positive
